tested on: intestinal cells from whole small-intestine; experiment: Uptake of 14C-labeled CPT-11 and SN-38 by intestinal cells, regions combined or not distinguished (TCA, pH, bicarbonate effects)
MEASURED_PARAMETER: transport mechanism in intestinal cells

>  <COMPOUND>
CCc1c2c(nc3ccc(O)cc13)-c1cc3c(c(=O)n1C2)COC(=O)[C@]3(O)CC

>  <MEASURED_PARAMETER>
transport mechanism in intestinal cells

>  <VALUE_MEASURED>
passively transported

$$$$
>  <COMPOUND>
CCc1c2c(nc3ccc(OC(=O)N4CCC(N5CCCCC5)CC4)cc13)-c1cc3c(c(=O)n1C2)COC(=O)[C@]3(O)CC

>  <MEASURED_PARAMETER>
transport mechanism in intestinal cells

>  <VALUE_MEASURED>
passively transported

$$$$
>  <COMPOUND>
CCc1c2c(nc3ccc(O)cc13)-c1cc([C@@](O)(CC)C(=O)O)c(CO)c(=O)n1C2 [SN-38 carboxylate]

>  <MEASURED_PARAMETER>
transport mechanism in intestinal cells

>  <VALUE_MEASURED>
actively absorbed

$$$$
>  <COMPOUND>
CCc1c2c(nc3ccc(OC(=O)N4CCC(N5CCCCC5)CC4)cc13)-c1cc([C@@](O)(CC)C(=O)O)c(CO)c(=O)n1C2 [CPT-11 carboxylate]

>  <MEASURED_PARAMETER>
transport mechanism in intestinal cells

>  <VALUE_MEASURED>
actively absorbed

$$$$
